- Test system: human ether-à-go-go-related gene (hERG) potassium channel (human, UniProt Q12809)
- Sequence (Q12809 whole entry, looked up): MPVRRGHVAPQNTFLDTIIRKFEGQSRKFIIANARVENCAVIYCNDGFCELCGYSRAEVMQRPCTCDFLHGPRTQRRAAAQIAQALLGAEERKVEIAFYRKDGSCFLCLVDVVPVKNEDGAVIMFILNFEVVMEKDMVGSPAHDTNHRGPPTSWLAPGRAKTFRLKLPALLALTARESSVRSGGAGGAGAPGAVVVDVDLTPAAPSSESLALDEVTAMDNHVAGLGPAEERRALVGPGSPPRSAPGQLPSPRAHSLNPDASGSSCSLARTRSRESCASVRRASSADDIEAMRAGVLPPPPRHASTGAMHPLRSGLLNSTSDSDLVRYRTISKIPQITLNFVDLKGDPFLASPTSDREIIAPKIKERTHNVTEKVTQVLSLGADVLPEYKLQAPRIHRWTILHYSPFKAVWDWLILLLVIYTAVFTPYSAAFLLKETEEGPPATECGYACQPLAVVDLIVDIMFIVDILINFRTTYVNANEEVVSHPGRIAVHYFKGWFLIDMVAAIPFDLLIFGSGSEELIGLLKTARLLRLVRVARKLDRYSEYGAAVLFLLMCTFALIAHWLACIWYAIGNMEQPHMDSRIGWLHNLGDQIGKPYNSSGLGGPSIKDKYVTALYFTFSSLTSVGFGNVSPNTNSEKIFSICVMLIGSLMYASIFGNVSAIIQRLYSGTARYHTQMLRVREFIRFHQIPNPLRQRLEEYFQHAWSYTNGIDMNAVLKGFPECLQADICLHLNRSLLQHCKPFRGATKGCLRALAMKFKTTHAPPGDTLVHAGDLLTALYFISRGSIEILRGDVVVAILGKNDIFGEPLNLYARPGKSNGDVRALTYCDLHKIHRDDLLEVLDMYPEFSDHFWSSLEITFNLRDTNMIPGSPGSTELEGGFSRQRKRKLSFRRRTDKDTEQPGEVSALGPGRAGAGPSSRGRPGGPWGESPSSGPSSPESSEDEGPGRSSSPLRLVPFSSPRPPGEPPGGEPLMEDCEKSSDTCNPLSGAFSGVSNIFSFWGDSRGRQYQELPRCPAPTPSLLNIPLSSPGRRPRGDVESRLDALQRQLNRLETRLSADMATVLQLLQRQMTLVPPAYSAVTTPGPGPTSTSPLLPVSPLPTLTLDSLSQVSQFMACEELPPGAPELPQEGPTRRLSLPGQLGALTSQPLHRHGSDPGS
- Assay summary: primary screen, population patch clamp on CHO cells stably expressing hERG; higher = less effect of the substance
Out of some 310,000 compounds screened, about 14,000 (4.5%) showed an effect of 50% or more. The effect is printed as a negative number. Many of the other results were omitted from the sample, so strong results are more common in it than they were.
# if value of hERG current change (%, negative = inhibition) at 10uM reaches -30%, tag Met; if it stays below, tag Not met

Compound: CCN1C[C@]2(COC)CC[C@H](OC)[C@@]34C1[C@]1(OCO[C@@]15C[C@H](OC)[C@H]1C[C@@H]3[C@@H]5[C@H]1OC)[C@@H](O)[C@H]24
Class name: Met
--
Compound: COc1cc2c(c(OC)c1OC)-c1c(cc(OC)c(OC)c1OC)C[C@H](C)[C@H](C)C2
Class name: Not met
--
Compound: Cc1cc(NC(=O)Nc2ccc(Cl)c(Cl)c2)n(-c2ccccc2)n1
Class name: Met
--
Compound: CCC1(C)Cc2c(sc3nc(SC)n(Cc4ccccc4)c(=O)c23)CO1 (stereo not drawn)
Class name: Met
--
Compound: O=C(NCc1ccco1)c1ccc(F)c(S(=O)(=O)N2CCCCC2)c1
Class name: Met
--
Compound: Cc1ccc(C)c2sc(NC(=O)c3nc4ccccc4s3)nc12
Class name: Met
--
Compound: COc1cc(C2(O)CCCCC2C)cc(OC)c1OC (stereo not drawn)
Class name: Met
--
Compound: COc1ccc(-n2nnnc2SCC(=O)N2CCCc3ccccc32)cc1OC
Class name: Met
--
Compound: Cc1ccccc1S(=O)(=O)Cc1ccc(C(=O)NCCN2CCCCC2C)o1 (stereo not drawn)
Class name: Not met
--
Compound: CCn1cc(C(=O)NCC2CCCO2)c(=O)c2cc(S(=O)(=O)N3CCCCC3)ccc21 (stereo not drawn)
Class name: Not met
--
Compound: CCCC(=O)Nc1ccc2oc(-c3ccncc3)nc2c1
Class name: Met
--
Compound: Cc1c(C#N)c(N)nc(Cl)c1C#N
Class name: Met
--
Compound: C=CCn1c(SCC(=O)N(CC)C2CCS(=O)(=O)C2)nc2cc(C(=O)O)ccc2c1=O (stereo not drawn)
Class name: Met
--
Compound: COCCn1c(SCC(=O)N(C)C2CCS(=O)(=O)C2)nc2ccccc2c1=O (stereo not drawn)
Class name: Met
--
Compound: CCOCCCn1c(SCC(=O)N(C)C2CCS(=O)(=O)C2)nc2ccccc2c1=O (stereo not drawn)
Class name: Not met
--
Compound: O=C(NC1=NCCS1)C1CC2CCC1C2 (stereo not drawn)
Class name: Met
--
Compound: O=C(NCc1ccccc1)N1CCN(c2ccccc2F)CC1
Class name: Met
--
Compound: Cc1ccc(C(=O)NCc2ccco2)cc1S(=O)(=O)Nc1cccc(C)c1C
Class name: Not met
--
Compound: COc1ccc(C(=O)NN(C)c2nc(-c3ccccc3)nnc2C(F)(F)F)cc1
Class name: Met
--
Compound: O=C(CSc1nc(-c2cccs2)nc2ccccc12)NC1CCS(=O)(=O)C1 (stereo not drawn)
Class name: Met
--
Compound: C/C=C(/C)C(=O)O[C@@H]1c2cc3c(c(OC)c2-c2c(cc(OC)c(OC)c2OC)[C@@H](OC(C)=O)[C@@H](C)[C@H]1C)OCO3
Class name: Met
--
Compound: CCn1cc(C(=O)NCC2CCCO2)c(=O)c2cc(S(=O)(=O)N3CCC(C)CC3)ccc21 (stereo not drawn)
Class name: Met
--
Compound: C=CCn1c(SCC(=O)N(CC)C2CCS(=O)(=O)C2)nnc1-c1ccccc1 (stereo not drawn)
Class name: Met
--
Compound: CCN(C(=O)CSc1n[nH]c(-c2cccs2)n1)C1CCS(=O)(=O)C1 (stereo not drawn)
Class name: Met
--
Compound: COC(=O)c1ccc2c(C)c(C(C)(C)O)[nH]c2c1
Class name: Met
--
Compound: CCC(=O)Nc1ccc(C(=O)CSc2nnc(-c3ccc(NS(=O)(=O)CC)cc3)o2)cc1OC
Class name: Met
--
Compound: Cc1ccc(C)c(NS(=O)(=O)c2cc(C(=O)NCc3ccco3)ccc2C)c1
Class name: Not met
--
Compound: CCn1cc(C(=O)NCc2ccco2)c(=O)c2cc(S(=O)(=O)N3CCCCCC3)ccc21
Class name: Not met
--
Compound: Clc1ccc(CN2CCc3c([nH]c4ccccc34)C2)cc1Cl
Class name: Met
--
Compound: Cc1cccc(CN2CCc3c([nH]c4ccccc34)C2)c1
Class name: Not met
--
Compound: Cc1ccc(C(=O)NCc2ccco2)cc1S(=O)(=O)N1CCCCC1
Class name: Met
--
Compound: CCOC(=O)Cn1c(S(=O)(=O)Cc2ccc(F)cc2)nc(-c2ccccc2)c1-c1ccccc1
Class name: Met
--
Compound: CCC(CC)C(=O)NCCc1cc2c(C)ccc(C)c2[nH]c1=O
Class name: Met
--
Compound: OCC1(Cc2ccccc2)CCN(C2CCN(c3ccccc3F)CC2)CC1
Class name: Not met
--
Compound: CCN(C(=O)CSc1nc2ccccc2c(=O)n1CCOC)C1CCS(=O)(=O)C1 (stereo not drawn)
Class name: Not met
--
Compound: C=CCn1c(SCC(=O)N(CC)C2CCS(=O)(=O)C2)nc2ccccc2c1=O (stereo not drawn)
Class name: Not met
--
Compound: O=C(COC(=O)C1(c2ccc(Cl)cc2)CCCC1)N1CCc2ccccc21
Class name: Met
--
Compound: CCn1cc(C(=O)NCc2ccco2)c(=O)c2cc(S(=O)(=O)N3CCC(C)CC3)ccc21
Class name: Not met
--
Compound: CCn1cc(C(=O)NCc2ccco2)c(=O)c2cc(S(=O)(=O)N3CCCC3)ccc21
Class name: Met

###

- Test system: human ether-à-go-go-related gene (hERG) potassium channel (human)
- Assay summary: primary screen, population patch clamp on CHO cells stably expressing hERG; higher = less effect of the substance
- Method: Briefly, Chinese hamster ovary (CHO) cells stably expressing the hERG channel were dislodged from tissue culture flasks and dispensed into PPC plates. […] During the recording, background leak currents were estimated by a 100 ms step to -80 mV from an initial holding potential of -70 mV and subtracted from the subsequent current measurement. The campaign was conducted in two phases using slight differences in recording protocol. […]
About 14,000 (4.5%) of roughly 310,000 compounds showed an effect of 50% or more. Effects have a minus sign here. Only a selection was taken, and strong results are over-represented in it overall.
Each item that follows carries a reported hERG current change (%, negative = inhibition) at 10uM.
Endpoint: hERG current change (%, negative = inhibition) at 10uM (%)

Compound: Cl.OC(CN1C2=NCCN2c2ccccc21)c1ccc2c(c1)OCO2 (stereo not shown)
Endpoint value: -63.6
//
Compound: CCOC(=O)c1nn(-c2ccc(C)cc2)cc1C(=O)c1ccccc1
Endpoint value: -9.04
//
Compound: Cl.OC(CN1C2=NCCCN2c2ccccc21)c1ccc2c(c1)OCO2 (stereo not shown)
Endpoint value: -70.2
//
Compound: CNC(=O)c1ccc(OCc2ccccc2)c(OC)c1
Endpoint value: 3.11
//
Compound: CN(C)S(=O)(=O)c1cccc(-c2cn3ccccc3n2)c1
Endpoint value: -2.91
//
Compound: CCN(c1ccccc1)S(=O)(=O)c1cccc(C(=O)NCC2(N(C)C)CCCCC2)c1
Endpoint value: -60.5
//
Compound: COc1ccccc1NS(=O)(=O)c1cccc(C(=O)NCC2(N(C)C)CCCCC2)c1
Endpoint value: -22.2
//
Compound: C[C@H](NC(=O)OCc1ccccc1)C(=O)NNC(=O)[C@H](Cc1ccccc1)NC(=O)OC(C)(C)C
Endpoint value: 31.2
//
Compound: CCN(c1ccccc1)S(=O)(=O)c1ccc(C(=O)Nc2ccncc2)cc1
Endpoint value: -68.7
//
Compound: COc1cc(C(=O)NCC2(N(C)C)CCCCC2)ccc1OCc1ccccc1
Endpoint value: -59.7

###

- Test system: human ether-à-go-go-related gene (hERG) potassium channel (human)
- Assay summary: primary screen, population patch clamp on CHO cells stably expressing hERG; higher = less effect of the substance
Among all 310,000 compounds or so, about 14,000 (4.5%) showed an effect of 50% or more. The effect is printed as a negative number. This excerpt belongs to a sample that is enriched for strong results.
Endpoint: hERG current change (%, negative = inhibition) at 10uM (%)

Molecule: C=CCNC(=S)N1CCN(c2ccc([N+](=O)[O-])cc2)CC1
Test system: human ether-à-go-go-related gene (hERG) potassium channel (human)
Measurement units: %
Endpoint value: -63.6
--
Molecule: CCOc1cc(NC(=O)c2ccco2)c(OCC)cc1NC(=O)COc1ccccc1C
Test system: human ether-à-go-go-related gene (hERG) potassium channel (human)
Measurement units: %
Endpoint value: 26.4
--
Molecule: O=C(NNC(=O)c1cccs1)c1ccc(Br)o1
Test system: human ether-à-go-go-related gene (hERG) potassium channel (human)
Measurement units: %
Endpoint value: 15.8
--
Molecule: COc1ccc(CCN(C)Cc2ccc(C(=O)Nc3ccccc3)cc2)cc1OC
Test system: human ether-à-go-go-related gene (hERG) potassium channel (human)
Measurement units: %
Endpoint value: -67.3
--
Molecule: COCCCNC(=S)N1CCN(c2ccc([N+](=O)[O-])cc2)CC1
Test system: human ether-à-go-go-related gene (hERG) potassium channel (human)
Measurement units: %
Endpoint value: -68
--
Molecule: COc1ccccc1OCc1ccc(C(=O)Nc2ccccc2)cc1
Test system: human ether-à-go-go-related gene (hERG) potassium channel (human)
Measurement units: %
Endpoint value: 11.1
--
Molecule: CCNC(=S)N1CCN(c2ccc([N+](=O)[O-])cc2)CC1
Test system: human ether-à-go-go-related gene (hERG) potassium channel (human);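 also: peak tail current of the secondary pulse compared with the same well before compound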
Measurement units: %
Endpoint value: -64.5
--
Molecule: CCCCP(=O)(CCCC)Cc1ccccc1
Test system: human ether-à-go-go-related gene (hERG) potassium channel (human);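 also: peak tail current of the secondary pulse compared with the same well before compound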
Measurement units: %
Endpoint value: 15.3
--
Molecule: COc1ccc(CN(CCc2ccccc2)Cc2ccccc2)cc1OC.O=C(O)C(=O)O
Test system: human ether-à-go-go-related gene (hERG) potassium channel (human);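 also: peak tail current of the secondary pulse compared with the same well before compound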
Measurement units: %
Endpoint value: -9.99
--
Molecule: COc1ccc(-c2noc(C(C)NS(=O)(=O)c3ccc(NC(C)=O)cc3)n2)cc1 (stereo not shown)
Test system: human ether-à-go-go-related gene (hERG) potassium channel (human);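 also: peak tail current of the secondary pulse compared with the same well before compound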
Measurement units: %
Endpoint value: 17.5
